target: plasma purified human complement protein C3 (human) (UniProt P01024)
Sequence (P01024 23-667, chain 1 of 2): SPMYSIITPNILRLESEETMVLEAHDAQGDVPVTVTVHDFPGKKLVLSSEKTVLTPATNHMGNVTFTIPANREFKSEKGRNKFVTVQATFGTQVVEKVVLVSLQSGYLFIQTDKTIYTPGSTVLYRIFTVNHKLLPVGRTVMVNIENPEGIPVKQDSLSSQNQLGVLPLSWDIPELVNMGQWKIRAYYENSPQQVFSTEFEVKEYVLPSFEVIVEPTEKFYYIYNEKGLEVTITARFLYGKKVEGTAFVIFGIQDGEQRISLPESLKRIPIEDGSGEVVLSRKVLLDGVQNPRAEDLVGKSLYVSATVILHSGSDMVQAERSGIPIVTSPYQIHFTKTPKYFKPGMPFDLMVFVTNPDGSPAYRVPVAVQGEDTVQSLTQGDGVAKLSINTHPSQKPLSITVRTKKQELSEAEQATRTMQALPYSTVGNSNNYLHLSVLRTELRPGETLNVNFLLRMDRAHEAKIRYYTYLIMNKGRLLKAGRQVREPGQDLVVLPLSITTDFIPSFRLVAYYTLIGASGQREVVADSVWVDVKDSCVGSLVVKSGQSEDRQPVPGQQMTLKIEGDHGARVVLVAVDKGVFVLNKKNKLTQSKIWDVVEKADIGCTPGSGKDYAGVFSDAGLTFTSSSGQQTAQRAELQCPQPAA
Sequence (P01024 672-1663, chain 2 of 2): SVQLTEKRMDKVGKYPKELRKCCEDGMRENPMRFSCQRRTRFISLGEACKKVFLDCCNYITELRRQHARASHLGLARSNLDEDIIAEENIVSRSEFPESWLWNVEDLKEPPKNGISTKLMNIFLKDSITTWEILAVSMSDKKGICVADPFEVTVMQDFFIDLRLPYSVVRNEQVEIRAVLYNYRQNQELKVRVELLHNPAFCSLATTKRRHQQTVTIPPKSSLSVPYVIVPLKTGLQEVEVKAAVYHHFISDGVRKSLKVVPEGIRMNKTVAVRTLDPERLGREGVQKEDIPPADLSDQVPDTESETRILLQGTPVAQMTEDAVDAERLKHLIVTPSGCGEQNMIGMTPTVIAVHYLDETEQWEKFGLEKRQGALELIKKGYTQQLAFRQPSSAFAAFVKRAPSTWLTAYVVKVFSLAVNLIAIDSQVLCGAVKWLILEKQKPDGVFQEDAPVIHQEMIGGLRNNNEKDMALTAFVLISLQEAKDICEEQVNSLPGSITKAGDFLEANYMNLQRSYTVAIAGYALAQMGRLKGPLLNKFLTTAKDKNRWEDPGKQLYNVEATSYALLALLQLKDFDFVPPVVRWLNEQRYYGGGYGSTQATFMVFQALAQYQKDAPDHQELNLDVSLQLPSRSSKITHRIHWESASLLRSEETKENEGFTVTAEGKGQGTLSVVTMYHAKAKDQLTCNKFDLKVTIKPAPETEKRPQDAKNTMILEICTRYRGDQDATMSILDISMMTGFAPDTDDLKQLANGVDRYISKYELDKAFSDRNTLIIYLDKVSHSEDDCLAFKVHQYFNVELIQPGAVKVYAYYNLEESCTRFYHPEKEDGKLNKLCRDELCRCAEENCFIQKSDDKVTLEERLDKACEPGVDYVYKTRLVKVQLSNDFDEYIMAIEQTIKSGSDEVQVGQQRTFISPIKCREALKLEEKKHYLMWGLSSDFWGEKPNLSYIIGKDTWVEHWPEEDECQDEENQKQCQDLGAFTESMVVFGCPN
procedure-summary: cell-based or functional assay
Each record here notes measured EC50 of hC3 cleavage.

>  <binder>
MTSP-1 S90T/D96A/ins97aE/F97T/T98G/F99L/C122S/Q175L/Q192D (enzyme) VVGGTDADEGEWPWQVSLHALGQGHICGASLISPNWLVSAAHCYIDDRGFRYSDPTQWTAFLGLHDQSQRSAPGVQERRLKRIITHPFFNATEGLDYDIALLELEKPAEYSSMVRPISLPDASHVFPAGKAIWVTGWGHTQYGGTGALILQKGEIRVINQTTCENLLPQLITPRMMCVGFLSGGVDSCDGDSGGPLSSVEADGRIFQAGVVSWGDGCAQRNKPGVYTRLPLFRDWIKENTGV

>  <units-of-measure>
µM

>  <EC50 of hC3 cleavage>
0.28

$$$$
>  <binder>
MTSP-1 H40R/I41H/F97D/F99L/C122S/Q175K/Q192G/D217I/K224H (enzyme) VVGGTDADEGEWPWQVSLHALGQGRHCGASLISPNWLVSAAHCYIDDRGFRYSDPTQWTAFLGLHDQSQRSAPGVQERRLKRIISHPFFNDDTLDYDIALLELEKPAEYSSMVRPISLPDASHVFPAGKAIWVTGWGHTQYGGTGALILQKGEIRVINQTTCENLLPQKITPRMMCVGFLSGGVDSCGGDSGGPLSSVEADGRIFQAGVVSWGIGCAQRNHPGVYTRLPLFRDWIKENTGV

>  <units-of-measure>
µM

>  <EC50 of hC3 cleavage>
0.0194

$$$$
>  <binder>
MTSP-1 D60bY/F97T/ins97aE/T98G/F99L/C122S/Q175L/Q192G (enzyme) VVGGTDADEGEWPWQVSLHALGQGHICGASLISPNWLVSAAHCYIDYRGFRYSDPTQWTAFLGLHDQSQRSAPGVQERRLKRIISHPFFNDTEGLDYDIALLELEKPAEYSSMVRPISLPDASHVFPAGKAIWVTGWGHTQYGGTGALILQKGEIRVINQTTCENLLPQLITPRMMCVGFLSGGVDSCGGDSGGPLSSVEADGRIFQAGVVSWGDGCAQRNKPGVYTRLPLFRDWIKENTGV

>  <units-of-measure>
µM

>  <EC50 of hC3 cleavage>
0.0041

$$$$
